target: CDK6/cyclin D3 (Homo sapiens); experiment: Assay of kinase activity (ADP-Glo); type: biochemical; settings: kinase inhibitory activity
Sequence (Q00534 whole entry, species assumed): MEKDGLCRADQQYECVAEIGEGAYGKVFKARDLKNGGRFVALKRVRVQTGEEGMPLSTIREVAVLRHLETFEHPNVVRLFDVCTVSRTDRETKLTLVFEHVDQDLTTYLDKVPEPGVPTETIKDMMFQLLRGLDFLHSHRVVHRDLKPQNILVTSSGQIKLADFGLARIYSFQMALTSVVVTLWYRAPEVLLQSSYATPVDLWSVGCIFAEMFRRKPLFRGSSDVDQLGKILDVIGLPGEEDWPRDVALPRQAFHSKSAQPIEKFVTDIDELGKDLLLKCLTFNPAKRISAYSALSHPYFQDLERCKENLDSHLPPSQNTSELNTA
Sequence (P30281 whole entry partner, species assumed): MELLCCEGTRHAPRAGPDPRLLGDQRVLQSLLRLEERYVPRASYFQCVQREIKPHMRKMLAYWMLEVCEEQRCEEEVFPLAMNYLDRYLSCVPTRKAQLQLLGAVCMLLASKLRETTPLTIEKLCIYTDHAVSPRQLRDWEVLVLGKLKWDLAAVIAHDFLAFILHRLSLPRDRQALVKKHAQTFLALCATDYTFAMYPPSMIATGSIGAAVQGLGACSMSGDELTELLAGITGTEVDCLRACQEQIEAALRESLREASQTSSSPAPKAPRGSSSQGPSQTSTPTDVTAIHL
pIC50: −log10 of the molar value.
# label = label 1 if pIC50 >= 8 else label 0

molecule="CC(C)(O)Cn1nnc2ccc3cnc(Nc4ccc(C(=O)N5CCOCC5)cc4)nc3c21 [Example I-53]" study_target="CDK6/cyclin D3 (Homo sapiens)" label="label 0"
molecule="C[C@@H](n1nnc2ccc3cnc(Nc4ccc(C(=O)N5CCNCC5)cc4)nc3c21)C(C)(C)O [Example I-56]" study_target="CDK6/cyclin D3 (Homo sapiens)" label="label 1"
molecule="CC(C)n1nnc2ccc3cnc(Nc4ccc(C(=O)N5CCC(N)CC5)c(F)c4)nc3c21 [Example I-16]" study_target="CDK6/cyclin D3 (Homo sapiens)" label="label 0"
molecule="CN[C@H]1CCN(C(=O)c2ccc(Nc3ncc4ccc5nnn(C(C)C)c5c4n3)cc2)C1 [Example I-6]" study_target="CDK6/cyclin D3 (Homo sapiens)" label="label 1"
molecule="CC(C)n1nnc2ccc3cnc(Nc4ccc(C(=O)N5CCCN(C)CC5)cc4)nc3c21 [Example I-34]" study_target="CDK6/cyclin D3 (Homo sapiens)" label="label 0"
molecule="CC(C)n1nnc2ccc3cnc(Nc4ccc(C(=O)N5CCNC(C)(C)C5)cc4)nc3c21 [Example I-22]" study_target="CDK6/cyclin D3 (Homo sapiens)" label="label 0"
molecule="C[C@@H](CO)n1nnc2ccc3cnc(Nc4ccc(C(=O)N5CCOCC5)cc4)nc3c21 [Example I-49]" study_target="CDK6/cyclin D3 (Homo sapiens)" label="label 0"
molecule="C[C@@H](CO)n1nnc2ccc3cnc(Nc4ccc(C(=O)N5CCNCC5)cc4)nc3c21 [Example I-48]" study_target="CDK6/cyclin D3 (Homo sapiens)" label="label 0"
molecule="C[C@H](CO)n1nnc2ccc3cnc(Nc4ccc(C(=O)N5CCNCC5)cc4)nc3c21 [Example I-50]" study_target="CDK6/cyclin D3 (Homo sapiens)" label="label 0"
molecule="CC(C)(O)Cn1nnc2ccc3cnc(Nc4ccc(C(=O)N5CCNCC5)cc4)nc3c21 [Example I-52]" study_target="CDK6/cyclin D3 (Homo sapiens)" label="label 0"
molecule="CC(C)N[C@H]1CCN(C(=O)c2ccc(Nc3ncc4ccc5nnn([C@@H]6CCC[C@@]6(C)O)c5c4n3)cc2)C1 [Example I-63]" study_target="CDK6/cyclin D3 (Homo sapiens)" label="label 1"
molecule="CC(C)n1nnc2ccc3cnc(Nc4ccc(C(=O)N5CC[C@@H](C)[C@@H](N)C5)cc4)nc3c21 [Example I-12]" study_target="CDK6/cyclin D3 (Homo sapiens)" label="label 0"
